# testedOn: vasopressin (V1) receptor (Rattus norvegicus, UniProt P30560)
# Construct: Membrane specimens of rat liver (V1); from tissue; host or cells: rat liver membranes
# Sequence (P30560 whole entry): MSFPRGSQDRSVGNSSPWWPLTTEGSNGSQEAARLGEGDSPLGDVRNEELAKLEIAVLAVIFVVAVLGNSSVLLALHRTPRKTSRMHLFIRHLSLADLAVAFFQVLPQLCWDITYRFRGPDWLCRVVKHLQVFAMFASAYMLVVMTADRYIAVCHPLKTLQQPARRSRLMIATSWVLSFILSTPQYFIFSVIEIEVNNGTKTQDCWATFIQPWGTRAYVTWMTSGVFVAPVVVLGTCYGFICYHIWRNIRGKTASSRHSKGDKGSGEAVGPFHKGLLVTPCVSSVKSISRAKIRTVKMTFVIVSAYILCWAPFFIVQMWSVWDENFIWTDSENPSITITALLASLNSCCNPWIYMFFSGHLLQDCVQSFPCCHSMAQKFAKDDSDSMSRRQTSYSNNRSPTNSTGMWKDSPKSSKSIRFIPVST
# protocolNotes: V1 receptor binding assay, rat liver membrane (Experiment F-2)
# reportedConditions: [3H]-Arg-vasopressin, pH 7.4
recordedMetric: IC50

Input O=C(N[C@H]1CCC[C@H]2SC[C@@H](C(=O)O)N2C1=O)[C@@H](S)Cc1ccccc1 . Output IC50: ≥ 10 µM

###

# testedOn: NEP (Rattus norvegicus)
# Sequence (P07861 whole entry): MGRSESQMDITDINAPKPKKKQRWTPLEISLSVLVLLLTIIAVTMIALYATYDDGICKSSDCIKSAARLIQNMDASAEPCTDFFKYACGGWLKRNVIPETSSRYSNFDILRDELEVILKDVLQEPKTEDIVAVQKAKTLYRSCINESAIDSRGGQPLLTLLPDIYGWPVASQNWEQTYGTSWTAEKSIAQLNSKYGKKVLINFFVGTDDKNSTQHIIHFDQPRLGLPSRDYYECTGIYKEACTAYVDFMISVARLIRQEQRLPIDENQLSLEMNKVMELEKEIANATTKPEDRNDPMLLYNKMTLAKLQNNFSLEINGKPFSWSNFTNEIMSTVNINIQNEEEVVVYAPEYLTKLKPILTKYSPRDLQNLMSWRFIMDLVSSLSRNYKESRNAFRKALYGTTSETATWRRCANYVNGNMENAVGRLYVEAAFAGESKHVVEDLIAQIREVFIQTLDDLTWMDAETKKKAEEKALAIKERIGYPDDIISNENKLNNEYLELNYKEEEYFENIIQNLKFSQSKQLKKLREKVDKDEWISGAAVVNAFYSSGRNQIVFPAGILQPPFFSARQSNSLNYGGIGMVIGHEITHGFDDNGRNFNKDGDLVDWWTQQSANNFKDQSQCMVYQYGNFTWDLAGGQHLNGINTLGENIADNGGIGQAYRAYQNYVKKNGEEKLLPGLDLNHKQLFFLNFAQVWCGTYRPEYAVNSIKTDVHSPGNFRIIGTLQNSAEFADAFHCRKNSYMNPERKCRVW
# protocolNotes: NEP inhibition activity using rat renal cortex (Experiment A-1)
# Format: biochemical
# Parameters: membrane fraction prepared from rat renal cortex; from tissue; host or cells: rat renal cortex, membrane fraction (method of Booth and Kenny)
# reportedConditions: rat renal cortex membrane fraction
# Description: The NEP activity was determined by using a membrane fraction prepared from rat renal cortex in accordance with the method of Booth and Kenny (A Rapid Metod for the Purificaton of Microvilli from Rabbit Kidney., Andrew G. Booth and A. John Kenny, Biochem j., 1974, 142, […].). […]
recordedMetric: IC50 (nM)
Give the value, in units of nM, as a plain number.

# count of solved cases: 3
molecule | recordedMetric | observedResult
CC[C@H](C)[C@H](S)C(=O)NC1CCc2ccccc2N(CC(=O)O)C1=O (some centres unmarked) [Example A-9] | IC50 | 13
CC[C@H](C)[C@H](S)C(=O)N[C@H]1CCc2ccccc2N(CC(=O)O)C1=O [Example A-11] | IC50 | 6.2
O=C(O)CN1C(=O)C(NC(=O)[C@@H](S)Cc2ccccc2)CCc2ccccc21 (some centres unmarked) [Example A-7] | IC50 | 8.2

Input CC(C)[C@H](S)C(=O)NC1CCc2ccc(-c3ccccc3)cc2N(CC(=O)O)C1=O (some centres unmarked) [Example A-5] . Output IC50: 160

Input O=C(O)CN1C(=O)C(NC(=O)[C@@H](S)Cc2ccccc2)CCc2ccc(-c3ccccc3)cc21 (some centres unmarked) [Example A-3] . Output IC50: 90
